Cited source for all entries: patent US20220125051A1

Entries and their pest or weed control at 500 g/ha values follow.
Test system: Eleusine indica (ELEIN)
Experiment: Post-emergence efficacy, Method A
Format: in vivo
Stated Conditions: Eleusine indica, post-emergence, 312 h; Application Rate 500 g/Ha; evaluated after 13 days; Method A; read-out: Control of weed species after post-emergence application, ELEIN (100=total damage to plant; 0=no damage to plant)
I'd appreciate it if you wrote the number followed by its unit.

N[C@@H](C[n+]1ccc(-c2ncccn2)cn1)C(=O)O [Compound A208, 2,2,2-trifluoroacetate] : 60%
CO[N-]C(=O)C[n+]1ccc(-c2ncccn2)cn1 : 100%
O=C(O)CC[n+]1ccc(-c2ncc(Cl)c(=O)[nH]2)cn1 [Compound A161, 2,2,2-trifluoroacetate] : 20%
CO[N-]C(=O)CC[n+]1ccc(-c2ncccn2)cn1 : 60%
COC(=O)CC[n+]1ccc(-c2ccncc2)cn1 : 60%

Asked: Which pest or weed control at 500 g/ha value is on record for O=S(=O)(O)CC[n+]1ccc(-c2ccncc2F)cn1 ?
Given back: 50%

Asked: Fill in the blank: the reported pest or weed control at 500 g/ha of Cc1cnc(-c2cc[n+](CCC(=O)O)nc2)c(C)c1 is ____.
Given back: 10%

Asked: Return reported pest or weed control at 500 g/ha; argument: O=S(=O)([O-])CC(O)C[n+]1ccc(-c2ccncn2)cn1 (centres unmarked)
Given back: 80%

Asked: Query (compound): O=S(=O)([O-])CCC[n+]1ccc(-c2ccc(-c3ccc(Cl)nn3)nn2)cn1 ; field requested: pest or weed control at 500 g/ha
Given back: 20%

Asked: What does the record list as pest or weed control at 500 g/ha for O=P(O)(O)CC[n+]1ccc(-c2ncccn2)cn1 ?
Given back: 80%

Asked: Report pest or weed control at 500 g/ha for OCCC[n+]1ccc(-c2ncccn2)cn1 please.
Given back: 10%

Asked: For the compound Cc1cc(-c2cc[n+](CCS(=O)(=O)[O-])nc2)nc(C)n1 , what pest or weed control at 500 g/ha is on record?
Given back: 60%

Asked: For O=C(O)CC[n+]1ccc(-c2ccncc2F)cn1 , what is its reported pest or weed control at 500 g/ha?
Given back: 90%

Asked: Record request: pest or weed control at 500 g/ha value, item CC(C)(CC(=O)O)[n+]1ccc(-c2ccncn2)cn1
Given back: 90%

Asked: Param item = O=S(=O)([O-])CC[n+]1ccc(-c2ncc(C(F)(F)F)cc2Cl)cn1 ; retrieve measured pest or weed control at 500 g/ha.
Given back: 40%

Asked: What does the record list as pest or weed control at 500 g/ha for O=S(=O)([O-])CCCC[n+]1ccc(-c2ncccn2)cn1 ?
Given back: 30%

Asked: Need pest or weed control at 500 g/ha of COC(=O)c1ccc(C[n+]2ccc(-c3ncccn3)cn2)cc1 , thanks.
Given back: 0%
